Test system: C6
protocol summary: Antimitotic activity against rat C6 cells by [3H]thymidine incorporation assay
Type: functional
applied conditions: C6, 24 h, read-out: ID50 (the source's name)
Catalogue of compounds with associated log10 of IC50
log10 IC50, µM

{"compound": "CCCCC(=O)N[C@H]1[C@@H](OCCc2ccccc2)O[C@H](COCC(CO)(CO)COS(=O)(=O)O)[C@@H](O)[C@@H]1O", "measured number": 0.93}
{"compound": "CCCCCCCCCCCCCCCCO[C@H]1O[C@H](COCC(O)CO)[C@@H](O)[C@H](O)[C@H]1NC(=O)CCCCCCCCCCCCCCC (mixture of isomers)", "measured number": 0.41}
{"compound": "C=CCCC(=O)N[C@H]1[C@@H](OCCCCCCCCCCCCCCCC)O[C@H](CO)[C@@H](O)[C@@H]1OS(=O)(=O)O", "measured number": 1.35}

# input for lookup
IN: I would be grateful if you could share the reported log10 of IC50 for `CCCCCCCCCCCCCCCCO[C@H]1O[C@H](CO)[C@@H](O)[C@H](O)[C@H]1NC(C)=O` .
OUT: 1.11
